Recorded values, source the DeepSol protein solubility set.

# Assay comment: soluble on expression in E. coli; label from the status in PepcDB or PDB records

>  <Query sequence>
MIKIKAIERKAGFGKTSKTLWYPAIHLHSDVKFEEFIELVSDETTVSSADIKAVFDRAAKVLIRLLQDGKSIDCGDMGTYRPSITAKAGSGVDSADKVTVELVDKAKVIYTPRMKVKTALKGVRMERAERVLDVPYASSIKPNENNSGGSSSSDNNGHAGL

>  <soluble on expression in E. coli>
not soluble

$$$$
>  <Query sequence>
MSLSILQRLIQQAKNPRGTIGSSMLCIMNTAHTRLTNWALQKVHIKKDAIILDIGCGGGKTIHTLSKRTPLGKIYGIDYSYQAVKNSIQTNIKDVQKQKVIVQQASVSSIPYHTNFFDLITAFQTHYFWPDVEQDIKEVFRVLQPNGSFLLVAETFKIQYHMEKWKTNEELINLFYKTGFTSVKCYEERGCLCVIGTKEGHHHHHH

>  <soluble on expression in E. coli>
not soluble

$$$$
>  <Query sequence>
MDANEKKEVIKKKYQEIAILGGSCCSGGCCGDSNSTDLSRSLGYSESDVQAVPDANMGLGCGNPTAFAELKPGDVVLDLGSGGGFDCFLAAQKIGSSGKVIGVDMTLEMVEKAQANARKYGYSNVEFRHGDIESLPVKDSSVDVIISNCVINLAPDKEKVFREAFRVLKPEGRMYISDMVLLDELPEELKNDSELLAGCIAGAVLKEEYLGLLKKAGFSVEILNEDLDISKRQYRDLPVESLKLKARVLEHHHHHH

>  <soluble on expression in E. coli>
soluble

$$$$
>  <Query sequence>
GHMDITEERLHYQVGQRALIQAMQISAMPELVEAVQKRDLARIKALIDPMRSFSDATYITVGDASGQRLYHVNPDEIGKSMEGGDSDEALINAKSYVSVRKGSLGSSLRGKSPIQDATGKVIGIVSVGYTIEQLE

>  <soluble on expression in E. coli>
soluble

$$$$

----------
# Assay comment: soluble on expression in E. coli; label from the status in PepcDB or PDB records
Attribute measured: soluble on expression in E. coli

>  <Query sequence>
MAGDPMAEAGNKTQNQSATEVNASPLQPAEYFIYHNLMNDKGLIKTDFSDQPSYLSESLGLWMEFLLSKNDAPHFQDQYQHLTDSFLMSNHLVTWKIQNGQASGTNALIDDMRIMLSLDQAAAKWGRSDYAQTARDIGTSLKTYNMNNGFFTDFYDSQAASKDVTLSYVMPDALAVLKKNGIIDEETEQRNANVLYSAPLKNGFLPKTYSSETKEYTYDSEINLIDQLYAAWHLPEGDEKASVLADWIKQEFQKNGKLYGRYSAYTKEPAVQYESPSVYALAVLFLTKQHENSSVIKAIYDRMNDFEIHDPVKSYYGGYMSGTQTHSFDNLLPLLAERKLFNENIIQLEHHHHHH

>  <Attribute measured>
soluble on expression in E. coli

>  <Recorded result>
soluble

$$$$
>  <Query sequence>
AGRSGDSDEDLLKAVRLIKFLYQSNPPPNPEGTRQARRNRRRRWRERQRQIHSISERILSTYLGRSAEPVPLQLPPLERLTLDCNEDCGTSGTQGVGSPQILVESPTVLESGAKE

>  <Attribute measured>
soluble on expression in E. coli

>  <Recorded result>
soluble

$$$$

----------
# Assay comment: soluble on expression in E. coli; label from the status in PepcDB or PDB records
Attribute measured: soluble on expression in E. coli

>  <Query sequence>
MKGKKVLITSGGCLEKWDQVRGHTNMAKGTIGRIIAEELLAKGAHVIYLHGYFAEKPSDVHRGLELHPFEGIVDLQDKMKSIISHEKVDAVIMAAAGSDWIVEKICDQDGNVLNMNGKISSDIAPIIHFQKAPKVLKQIKEWDPETVLVGFKLESDLNEEELFERAKNRMKEARANVMIANSPHSLYSRGAVHYVIGQDGKGKLCNGKDETAKEIVKSLEVLCNRVTAF

>  <Attribute measured>
soluble on expression in E. coli

>  <Recorded result>
not soluble

$$$$
>  <Query sequence>
MSLEQPGQPPAHSLVSLRGSGHHVAIVDRSDGRLLGTIDSARAASQVHPGAVYLHQGETFVIEELDDQVALAVPDQPDYQTFARSTTDIRIVGEVDKVCNPAPGLWVSNLVVEVTDRVVGYTMKASDGSVLAMVPLQMPPQTLVTRAVAYTVDPLVLDSLGITDVPGALHAAEHAAIGLLPLIATCDRWDIGGVSTAEHPDTGLPTVFVYDGHPGGAGFADCGYERFPEWVATTFEAIRSCQCESGCPSCVQSPKCGNGNDPLSKEGAIALLGAMCTMLGVTEGHHHHHH

>  <Attribute measured>
soluble on expression in E. coli

>  <Recorded result>
not soluble

$$$$
>  <Query sequence>
MTLKLIENLQKLGFTGNEAKVYSSLVCLKQAKASEIAENAGVPRPKIYGTLRTMEKKGYVRIIEGEPTIFCCIQPEELILRLKSDFLLFLRETASELNSLNPGNSDFVSEGFYRERIKV

>  <Attribute measured>
soluble on expression in E. coli

>  <Recorded result>
not soluble

$$$$
